# Measurement Notes: qHTS of pediatric cancer cell lines to identify multiple opportunities for drug repurposing: Confirmatory screen for TC32 cells (AID 1347118);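 note: cells exposed to compound for 48 h before the read; nearly all actives have a fitted effect of over 65% in size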
# Condition Description: TC32 Ewing sarcoma cells viability qHTS; series mostly up to 45.9 µM
Inconclusive results are not listed. Calls of active or inactive are those of the source. Calls come from the whole dose curve; as a rule, active = well fitted cell-killing curve with a large enough effect; inconclusive = small, poorly fitted or top-dose-only effect; inactive = no such curve, though single readings can be large or run the other way.
In this exercise, the only acceptable responses are Yes for active, No for inactive

Take a look at these entries with their results.
INSERT INTO assay_data (compound, label) VALUES
  ('CCCOc1ccc2nc(NC(=O)OC)[nH]c2c1', 'Yes'),
  ('CC(S)C(=O)NCC(=O)O (centres undefined)', 'No'),
  ('CCOc1cc(CC(=O)N[C@@H](CC(C)C)c2ccccc2N2CCCCC2)ccc1C(=O)O', 'No'),
  ('CC(=O)O[C@H]1C(=O)[C@@]2(C)C([C@H](OC(=O)c3ccccc3)[C@]3(O)C[C@H](OC(=O)[C@H](O)[C@@H](NC(=O)c4ccccc4)c4ccccc4)C(C)=C1C3(C)C)[C@]1(OC(C)=O)CO[C@@H]1C[C@@H]2O (some centres undefined)', 'Yes'),
  ('Cc1c(C(=O)NN2CCCCC2)nn(-c2ccc(Cl)cc2Cl)c1-c1ccc(Cl)cc1', 'Yes'),
  ('Oc1ccc(-c2nc(-c3ccc(F)cc3)c(-c3ccncc3)[nH]2)cc1', 'Yes'),
  ('O=C(NCC1CCCCN1)c1cc(OCC(F)(F)F)ccc1OCC(F)(F)F (centres undefined)', 'Yes'),
  ('CCN(CC)C(=S)SSC(=S)N(CC)CC', 'Yes');

Now look at this one.
Give the logged outcome of this assay for the following compound: "Cc1nc(Nc2ncc(C(=O)Nc3c(C)cccc3Cl)s2)cc(N2CCN(CCO)CC2)n1"
No

---

# Test system: FAB9
# Measurement Notes: qHTS profiling for inhibitors of Plasmodium falciparum proliferation (AID 504749); note: nearly all actives have a fitted effect of over 60% in size
# Condition Description: P. falciparum in erythrocytes, SYBR Green DNA, 72 h; series mostly up to 28.7 µM
# Method: NIH National Institute of Allergy and Infectious Diseases [NIAID] NIH Chemical Genomics Center [NCGC] […] Because mature erythrocytes lack DNA, only Plasmodium-derived DNA is detected. NCGC Assay Protocol Summary: The SYBR Green viability assay was adapted from a method described previously (Plouffe et al., 2008). […] The following morning, fluorescence intensity at 485(14) nm excitation and 535(25) nm emission wavelengths was measured on an EnVision (Perkin Elmer) plate reader. […]
Results filed as inconclusive are left out. The source made the active and inactive calls. Calls come from the whole dose curve; as a rule, active = well fitted inhibition curve with a large enough effect; inconclusive = small, poorly fitted or top-dose-only effect; inactive = flat fitted curve, though single readings scatter.
In this exercise, the only acceptable responses are Y for active, N for inactive

Take a look at these entries with their results.
INSERT INTO assay_data (compound, label) VALUES
  ('Cc1cc2c(s1)Nc1ccccc1N=C2N1CCN(C)CC1', 'N'),
  ('CC1(C)NC(=O)N(c2ccc([N+](=O)[O-])c(C(F)(F)F)c2)C1=O', 'N');

Give the logged outcome of this assay for the following compound: "Cc1ccc(C)c(OCCCC(C)(C)C(=O)O)c1"
N

Give the logged outcome of this assay for the following compound: "CNC[C@H](O)c1ccc(O)c(O)c1"
N

Give the logged outcome of this assay for the following compound: COCCCOc1ccnc(CS(=O)c2nc3ccccc3[nH]2)c1C (configuration not stated)
N

---

# Measurement Notes: qHTS of pediatric cancer cell lines to identify multiple opportunities for drug repurposing: Primary screen for Rh18 cells (AID 1347102); note: nearly all actives have a fitted effect of over 65% in size
# Condition Description: Rh18 rhabdomyosarcoma viability, CellTiter-Glo luminescence, 48 h; series mostly up to 46 µM
Results filed as inconclusive are left out. Calls of active or inactive are those of the source. Calls follow the shape of the dose curve; as a rule, active = well fitted cell-killing curve with a large enough effect; inconclusive = small, poorly fitted or top-dose-only effect; inactive = flat fitted curve, though single readings scatter.
In this exercise, the only acceptable responses are t (active), f (inactive)

INSERT INTO measurements (compound, label) VALUES
  ('CCC[C@@H]1C[C@@H](C(=O)N[C@@H]([C@H]2O[C@H](SC)[C@H](O)[C@@H](O)[C@H]2O)[C@@H](C)O)N(C)C1', 'f'),
  ('CN(C)CCc1c[nH]c2ccc(Cn3cncn3)cc12', 'f'),
  ('O=C(NC(Cc1cc(=O)[nH]c2ccccc12)C(=O)O)c1ccc(Cl)cc1 (stereo not drawn)', 'f'),
  ('CCOc1cc(CC(=O)N[C@@H](CC(C)C)c2ccccc2N2CCCCC2)ccc1C(=O)O', 'f'),
  ('N=C(N=C(N)N)N1CCOCC1', 'f');

Now look at this one.
Give the logged outcome of this assay for the following compound: "NC(=O)Cc1cccc(C(=O)c2ccccc2)c1N"
f

---

# Measurement Notes: qHTS drug screen for cell cycle checkpoint inhibitors in PARPi-resistant BRCA-mutant ovarian cancer cell lines. (AID 1963452)
# Condition Description: PEO1/OlaR viability, CellTiter-Glo luminescence, 96 h; stronger effect = lower value
Activity calls are given as the source filed them. Calls follow the shape of the full dose curve.
Property Name: Z-AUC

Here is how some compounds turned out for Z-AUC.
INSERT INTO results (compound, property_name, recorded_result) VALUES
  ('CC(C)Oc1ccc2c(=O)c(-c3ccccc3)coc2c1', 'Z-AUC', '0.208 (inactive)'),
  ('S=c1nc[nH]c2nc[nH]c12', 'Z-AUC', '-0.8 (inactive)'),
  ('Cc1ccc(C(=O)c2cc(O)c(O)c([N+](=O)[O-])c2)cc1', 'Z-AUC', '-0.393 (inactive)');

Please list Z-AUC recorded for the compound "O=c1cc(N2CCOCC2)oc2c(-c3ccccc3)cccc12"
0.98 (inactive)

Please list Z-AUC recorded for the compound Cc1ccc(S(=O)(=O)NC(=O)NN2CC3CCCC3C2)cc1 (stereo not given)
1.31 (inactive)

Please list Z-AUC recorded for the compound "C=C(c1ccc(C(=O)O)cc1)c1cc2c(cc1C)C(C)(C)CCC2(C)C"
1.36 (inactive)

Please list Z-AUC recorded for the compound "O=C1NC(=O)C(c2ccccc2[N+](=O)[O-])=C1Nc1ccc(O)c(Cl)c1"
0.891 (inactive)

Please list Z-AUC recorded for the compound "CC(C)(S)[C@@H](N)C(=O)O"
0.193 (inactive)

Please list Z-AUC recorded for the compound "CC[C@]1(O)C[C@H]2CN(CCc3c([nH]c4ccccc34)[C@@](C(=O)OC)(c3cc4c(cc3OC)N(C=O)[C@H]3[C@@](O)(C(=O)OC)[C@H](OC(C)=O)[C@]5(CC)C=CCN6CC[C@]43[C@@H]65)C2)C1"
-0.637 (inactive)

Please list Z-AUC recorded for the compound "O=c1c(O)c(-c2cc(O)c(O)c(O)c2)oc2cc(O)cc(O)c12"
1.5 (inactive)

Please list Z-AUC recorded for the compound COCCCOc1ccnc(CS(=O)c2nc3ccccc3[nH]2)c1C (stereo not given)
-0.249 (inactive)

Please list Z-AUC recorded for the compound "Nc1nc(Cl)nc2c1ncn2[C@H]1C[C@H](O)[C@@H](CO)O1"
-0.756 (inactive)

---

# System: Zika virus NS2B-NS3 protease
# Measurement Notes: Primary screen GU AMC qHTS for Zika virus inhibitors (AID 1347154);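 note: 0% = no-inhibitor control and -100% = no-enzyme control; nearly all actives have a fitted effect of over 70% in size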
# Condition Description: Zika NS2B-NS3 unlinked protease, AMC fluorogenic substrate; series mostly up to 54.1 µM
Results filed as inconclusive are left out. The source made the active and inactive calls. Calls follow the shape of the dose curve; as a rule, active = well fitted inhibition curve with a large enough effect; inconclusive = small, poorly fitted or top-dose-only effect; inactive = flat fitted curve, though single readings scatter.
In this exercise, the only acceptable responses are YES for active, NO for inactive

Give the logged outcome of this assay for the following compound: Clc1ccc(C(Cn2ccnc2)OCc2ccc(Sc3ccccc3)cc2)c(Cl)c1 (configuration not stated)
NO

Give the logged outcome of this assay for the following compound: "Nc1cc(C(Cl)=C(Cl)Cl)c(S(N)(=O)=O)cc1S(N)(=O)=O"
NO

Give the logged outcome of this assay for the following compound: "CC(=O)NC[C@H]1CN(c2ccc(N3CCOCC3)c(F)c2)C(=O)O1"
NO

Give the logged outcome of this assay for the following compound: "CCCc1cc(=O)[nH]c(=S)[nH]1"
NO

Give the logged outcome of this assay for the following compound: "CC(C)C[C@H](NC(=O)[C@H](Cc1ccccc1)NC(=O)c1cnccn1)B(O)O"
NO

Give the logged outcome of this assay for the following compound: "c1ccc2[nH]c(-c3cscn3)nc2c1"
NO

---

# Test system: CP203
# Measurement Notes: qHTS profiling for inhibitors of Plasmodium falciparum proliferation (AID 504749); note: nearly all actives have a fitted effect of over 60% in size
# Condition Description: P. falciparum in erythrocytes, SYBR Green DNA, 72 h; series mostly up to 28.7 µM
Results filed as inconclusive are left out. Active and inactive are the calls of the source. Calls follow the shape of the dose curve; as a rule, active = well fitted inhibition curve with a large enough effect; inconclusive = small, poorly fitted or top-dose-only effect; inactive = flat fitted curve, though single readings scatter.
In this exercise, the only acceptable responses are 1 for active, 0 for inactive

Take a look at these entries with their results.
INSERT INTO results (compound, label) VALUES
  ('COc1ccc(C2(C#N)CCC(C(=O)O)CC2)cc1OC1CCCC1 (stereo not drawn)', 0),
  ('Cc1cc(=O)c2c(O)c3c(O)cc(=O)c4c3c3c(cc(O)c1c23)C(C)(C)C=4O', 1);

Now look at this one.
Give the logged outcome of this assay for the following compound: "CC(C)[C@H](N)C(=O)OCCOCn1cnc2c(=O)[nH]c(N)nc21"
0

---

# Tested on: CP215
# Measurement Notes: qHTS profiling for inhibitors of Plasmodium falciparum proliferation (AID 504749); note: nearly all actives have a fitted effect of over 60% in size
# Condition Description: P. falciparum in erythrocytes, SYBR Green DNA, 72 h; series mostly up to 28.7 µM
Inconclusive results are not listed. The source made the active and inactive calls. Calls follow the shape of the dose curve; as a rule, active = well fitted inhibition curve with a large enough effect; inconclusive = small, poorly fitted or top-dose-only effect; inactive = flat fitted curve, though single readings scatter.
In this exercise, the only acceptable responses are true for active, false for inactive

Take a look at these entries with their results.
INSERT INTO measurements (compound, measured_target, label) VALUES
  ('C=C(c1ccc(C(=O)O)cc1)c1cc2c(cc1C)C(C)(C)CCC2(C)C', 'CP215', 'false'),
  ('N[C@@H](Cc1cc(I)c(Oc2cc(I)c(O)c(I)c2)c(I)c1)C(=O)O', 'CP215', 'false'),
  ('COc1cc(OC)c(C(=O)CCCN2CCCC2)c(OC)c1', 'CP215', 'false'),
  ('O=C(O)c1cc(=O)c2c(OCC(O)COc3cccc4oc(C(=O)O)cc(=O)c34)cccc2o1', 'CP215', 'false'),
  ('CCC[C@@H]1C[C@@H](C(=O)N[C@@H]([C@H]2O[C@H](SC)[C@H](O)[C@@H](O)[C@H]2O)[C@@H](C)O)N(C)C1', 'CP215', 'true');

Give the logged outcome of this assay for the following compound: "CCCc1cc(=O)[nH]c(=S)[nH]1"
false

Give the logged outcome of this assay for the following compound: COC(=O)C1=C(C)NC(C)=C(C(=O)OCCCN2CCC(c3ccccc3)(c3ccccc3)CC2)C1c1cccc([N+](=O)[O-])c1 (centres undefined)
true

Give the logged outcome of this assay for the following compound: "CC1(C)CCC(C)(C)c2cc(NC(=O)c3ccc(C(=O)O)cc3)ccc21"
false

Give the logged outcome of this assay for the following compound: "CC(C)c1ccc2oc3nc(N)c(C(=O)O)cc3c(=O)c2c1"
false
